- Tested on: Staphylococcus epidermidis EPI1
- Assay type: cell-based
- details: agar dilution
Known MIC of a selection of compounds
property.measured: MIC (µg/mL)

INSERT INTO assay_data (compound, readout_value) VALUES
  ('CCN(CC)c1ccc(CNC2(C)CC(OC3C(Oc4c5cc6cc4Oc4ccc(cc4Cl)C(O)C4NC(=O)C(NC(=O)C6NC(=O)C(CC(N)=O)NC(=O)C(NC(=O)C(CC(C)C)NC)C(O)c6ccc(c(Cl)c6)O5)c5ccc(O)c(c5)-c5c(O)cc(O)cc5C(C(=O)O)NC4=O)OC(CO)C(O)C3O)OC(C)C2O)cc1 (stereo not drawn) [Example 77, N^van ( -p-diethylaminobenzyl)vancomycin]', 1),
  ('CCCCCCCCCCNC1(C)CC(OC2C(Oc3c4cc5cc3Oc3ccc(cc3Cl)C(O)C(NC(=O)C(CC(C)C)N(C)CCCCCCCCCC)C(=O)NC(CC(N)=O)C(=O)NC5C(=O)NC3C(=O)NC(C(=O)NC(C(=O)O)c5cc(O)cc(O)c5-c5cc3ccc5O)C(O)c3ccc(c(Cl)c3)O4)OC(CO)C(O)C2O)OC(C)C1O (stereo not drawn) [Compound 4, N^van, N^leu --di(n-decyl)vancomycin]', 16),
  ('CCCCCCCCCCCCNC1(C)CC(OC2C(Oc3c4cc5cc3Oc3ccc(cc3Cl)C(O)C3NC(=O)C(NC(=O)C5NC(=O)C(CC(N)=O)NC(=O)C(NC(=O)C(CC(C)C)NC)C(O)c5ccc(c(Cl)c5)O4)c4ccc(O)c(c4)-c4c(O)cc(O)cc4C(C(=O)O)NC3=O)OC(CO)C(O)C2O)OC(C)C1O (stereo not drawn) [Compound 1, N^van --(n-dodecyl)vancomycin]', 0.5);
